B1: LINE1-full (parent)
chain: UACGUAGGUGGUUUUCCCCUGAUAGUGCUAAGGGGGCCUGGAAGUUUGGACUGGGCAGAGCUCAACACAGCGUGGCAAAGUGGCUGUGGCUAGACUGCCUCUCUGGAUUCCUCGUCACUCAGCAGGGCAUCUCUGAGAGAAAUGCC

Variants of: B1
Experiment: self-cleavage, relative activity (ratio to wild type); higher = more cleavage; in vitro, sequencing; the parent is a self-cleaving ribozyme
Everything with self-cleavage lower than 0.1 is false; everything else, including exactly 0.1, is true.

MUTANT ID | DISCRETE LABEL
A57G A92G | true
A6U A50G | true
G54A A57C | false
G32A U85A | true
A42G G89A | false
A129U U134C | true
A67G U85A | false
C99U A138U | true
U15C A141G | true
U73A C95G | false
A79U U115C | true
C18U G126U | true
A31U U81C | true
U73C U115A | true
G70C C90A | false
A67G U134A | true
U39A U46C | true
U47A A140U | true
A43G U115A | true
U39A A138U | true
C37A C95A | false
A24G U26A | true
U9A U14C | true
G4A U87G | false
G89A U112C | false
A2G G32A | false
C99U A117G | true
U115C U134A | true
U5C A57C | true

Ref: the RNAGym collection of RNA variant scans (doi:10.7554/elife.90254)
